- Test system: CD2F1 mice, L1210 leukemia ip, survival T/C
- test-protocol: NCI In Vivo Anticancer Drug Screen. Data for tumor model L1210 Leukemia (intraperitoneal) in CD2F1 (CDF1) mice
- conditions: endpoint: mean survival time; dose: 75.0 mg/kg/injection; schedule: Q01DX001 (ip); vehicle: saline; higher = longer survival
Inconclusive results and toxic doses are left out.
measured-property: T/C

[ask] For NC(=O)c1c[n+](Cc2ccccc2)ccn1 , what is its reported T/C?
[reply] 104 % of control

[ask] Endpoint output: T/C of Cc1ccc(N/C=C\c2cc[n+](C)cc2)nc1 . Value?
[reply] 103 % of control

[ask] Reported T/C for NC(=O)CC=O : what is it?
[reply] 98 % of control

[ask] What does the record list as T/C for COC(=O)/C(C#N)=C(\C)CC(C)C ?
[reply] 100 % of control

[ask] # get_value(readout='T/C', item= C[n+]1cc(Br)c2ccccc2c1 )
[reply] 100 % of control

[ask] May I ask what T/C has been recorded for CS(=O)(=O)N1CCCCC1 ?
[reply] 100 % of control

[ask] Consider the compound shown here: OCC(O)C(O)C(O)C(/C=N/Nc1ccccc1)=N\Nc1ccccc1 (stereo not drawn) What is its recorded T/C?
[reply] 95 % of control

[ask] // returns reported T/C for input CCCCCCC(C#N)C(=O)OCC (stereo not drawn)
[reply] 100 % of control
